Data provenance is ChEMBL document CHEMBL1121643.

test system: Rattus norvegicus; assay: Inhibition of passive cutaneous anaphylaxis (PCA) reaction in rats, peroral administration 5 mg/kg; type: functional; details: route oral
readout_label: inhibition in vivo at 5 mg/kg (%)
One number for each entry, in %.

Would you please look over these solved cases?
CCOC(=O)c1cc2nc3ccccc3c(O)n2n1    0
Cn1c2ccc(Cl)cc2c(=O)n2nc(-c3nn[nH]n3)cc12    0
O=C(Nc1nn[nH]n1)c1cc2nc3ccccc3c(O)n2n1    1
Nc1ccc2nc3cc(C(=O)O)nn3c(O)c2c1    16
Cn1c2ccccc2c(=O)n2nc(-c3nn[nH]n3)cc12    0
O=C(O)c1ccc2nc3cc(C(=O)O)nn3c(O)c2c1    7

# batch: return inhibition in vivo at 5 mg/kg for each of the 4 molecules below
1. O=C(O)c1cc2nc3cc(Cl)c(Cl)cc3c(O)n2n1
2. O=C(O)c1cc2nc3cccc(C(F)(F)F)c3c(O)n2n1
3. COc1cccc2nc3cc(C(=O)O)nn3c(O)c12
4. COc1cccc2nc3cc(C(=O)Nc4nn[nH]n4)nn3c(O)c12

0
10
18
18

Could I get inhibition in vivo at 5 mg/kg for every one of these entries?
1. COc1cc2nc3cc(C(=O)Nc4nn[nH]n4)nn3c(O)c2cc1OC
2. O=C(O)c1cc2nc3ccc(Cl)cc3c(O)n2n1

0
0
